Tested on: B6C3F1 mice, B16 melanoma ip, median survival T/C
Assay: NCI In Vivo Anticancer Drug Screen. Data for tumor model B16 Melanoma (intraperitoneal) in B6C3F1 mice
Conditions: endpoint: median survival time; dose: 50.0 mg/kg/injection; schedule: Q01DX009 (ip); vehicle: saline; higher = longer survival
Description: The antitumor activity of compounds was measured in mice bearing transplantable tumors. Survival or tumor size were measured and the results are expressed as the measurement made in the treated group (T) divided by the measurement made in the vehicle treated control group (C). The tumor model used in this assay is B16 Melanoma (intraperitoneal) in B6C3F1 mice
Toxic doses and inconclusive results are not listed. Where a SMILES comes first, the peptide text is derived from it.
Known T/C of a selection of molecules
OBSERVATION TYPE: T/C

{"MOLECULE": "NCC(=O)NC(CC(N)=O)C(=O)O (configuration not stated) (HELM PEPTIDE1{G.[NC(=O)CC(N[*:1])C(=O)O]}$$$$V2.0)", "RESULT": "98 % of control"}
{"MOLECULE": "CC1(C)OC1CS(=O)c1ccccc1 (configuration not stated)", "RESULT": "96 % of control"}
{"MOLECULE": "O=C(O)CCC(NC(=O)OCc1ccccc1)C(=O)NCC(=O)O (configuration not stated) (HELM PEPTIDE1{[O=C(OCc1ccccc1)[*:2]].[O=C(O)CCC(N[*:1])C(=O)[*:2]].G}$$$$V2.0)", "RESULT": "97 % of control"}
{"MOLECULE": "O=C1CCC(=O)N1CO", "RESULT": "121 % of control"}
{"MOLECULE": "C(COCCOCC1CO1)OCCOCC1CO1 (configuration not stated)", "RESULT": "107 % of control"}
{"MOLECULE": "COc1ccc(CC(N)c2ccccc2)cc1 (configuration not stated)", "RESULT": "99 % of control"}
{"MOLECULE": "NCC(=O)N1CCCC1C(=O)NCC(=O)NCC(=O)O (configuration not stated) (HELM PEPTIDE1{G.[O=C(C1CCCN1[*:1])[*:2]].G.G}$$$$V2.0)", "RESULT": "92 % of control"}

====

Tested on: B6C3F1 mice, B16 melanoma ip, median survival T/C
Assay: NCI In Vivo Anticancer Drug Screen. Data for tumor model B16 Melanoma (intraperitoneal) in B6C3F1 mice
Details: endpoint: median survival time; dose: 25.0 mg/kg/injection; schedule: Q01DX009 (ip); vehicle: saline
Inconclusive results and toxic doses are left out. The calls were made as follows: active = survival T/C of 150% or more; inactive = T/C below 125% in these data.
Possible outcomes: active, inactive

{"COMPOUND": "N=C(N)SCc1c2ccccc2c(CSC(=N)N)c2ccccc12", "LABEL": "active"}
{"COMPOUND": "c1cnc2ncncc2n1", "LABEL": "inactive"}
{"COMPOUND": "Cc1ncc(O)c(CO)c1O", "LABEL": "inactive"}
{"COMPOUND": "C1OC1CO[C@@H]1CO[C@H]2[C@@H]1OC[C@H]2OCC1CO1 (stereo partly specified)", "LABEL": "inactive"}
{"COMPOUND": "COCC(CN1CCN(c2ccccc2OC)CC1)OC (stereo unspecified)", "LABEL": "inactive"}
{"COMPOUND": "NC(=O)CCC(N)C(=O)O (stereo unspecified)", "LABEL": "inactive"}
{"COMPOUND": "CC(=O)/C(=C\\c1ccc(Cl)c(Cl)c1)C(=O)CCN(C)C", "LABEL": "inactive"}
{"COMPOUND": "CCCC(NC(=O)CN)C(=O)O (stereo unspecified)", "LABEL": "inactive"}
{"COMPOUND": "Nc1nc(/C=C(/O)c2ccccc2)c2ncn(C3OC(CO)C(O)C3O)c2n1 (stereo unspecified)", "LABEL": "inactive"}
{"COMPOUND": "O=Cc1ccc(O)c(O)c1", "LABEL": "inactive"}
{"COMPOUND": "CC(=O)CC(=O)CCC(=O)O", "LABEL": "inactive"}
{"COMPOUND": "NC(N)=N/N=C/c1ccc(Cl)cc1Cl", "LABEL": "inactive"}
{"COMPOUND": "O=C(O)CC(NC(=O)CP(=O)(O)O)C(=O)O (stereo unspecified)", "LABEL": "active"}
{"COMPOUND": "O=C(C1CO1)C(Cl)(Cl)Cl (stereo unspecified)", "LABEL": "inactive"}
{"COMPOUND": "NNC(=S)N/N=C/c1ccccn1", "LABEL": "inactive"}
{"COMPOUND": "COC(OC(CO)C(O)S(=O)(=O)O)C(O)S(=O)(=O)O (stereo unspecified)", "LABEL": "inactive"}

====

Tested on: B6C3F1 mice, B16 melanoma ip, median survival T/C
Assay: NCI In Vivo Anticancer Drug Screen. Data for tumor model B16 Melanoma (intraperitoneal) in B6C3F1 mice
Conditions: endpoint: median survival time; dose: 6.25 mg/kg/injection; schedule: Q01DX009 (ip); vehicle: Klucel (hydroxypropylcellulose) (HPC); higher = longer survival
Inconclusive results and toxic doses are left out.
Known T/C of a selection of compounds

{"COMPOUND": "CC1(C)N=C(N)N=C(N)N1c1cccc(CCCCc2cccc(N)c2)c1", "SYSTEM UNDER TEST": "B6C3F1 mice, B16 melanoma ip, median survival T/C", "T/C": "103 % of control"}
{"COMPOUND": "NC(CCl)=NCC12CC3CC(CC(C3)C1)C2", "SYSTEM UNDER TEST": "B6C3F1 mice, B16 melanoma ip, median survival T/C", "T/C": "101 % of control"}
{"COMPOUND": "COc1ccc2[nH]c3c(c2c1)CCNC3CC(C)CCC=C(C)C (stereo not given)", "SYSTEM UNDER TEST": "B6C3F1 mice, B16 melanoma ip, median survival T/C", "T/C": "99 % of control"}
{"COMPOUND": "COc1ccc(Cl)[n+]([O-])n1", "SYSTEM UNDER TEST": "B6C3F1 mice, B16 melanoma ip, median survival T/C", "T/C": "88 % of control"}
{"COMPOUND": "COc1c(C=O)c2c(c(OC)c1OC)-c1ccc(OC)c(=O)cc1[C@@H](NC(C)=O)CC2", "SYSTEM UNDER TEST": "B6C3F1 mice, B16 melanoma ip, median survival T/C", "T/C": "116 % of control"}

====

Tested on: B6C3F1 mice, B16 melanoma ip, median survival T/C
Test: NCI In Vivo Anticancer Drug Screen. Data for tumor model B16 Melanoma (intraperitoneal) in B6C3F1 mice
Settings: endpoint: median survival time; dose: 100.0 mg/kg/injection; schedule: Q01DX009 (ip); vehicle: saline with Tween-80; higher = longer survival
Toxic doses and inconclusive results are not listed.

{"COMPOUND": "c1nc(N2CC2)c2cnn(C3CCCCO3)c2n1 (stereo unspecified)", "T/C": "93 % of control"}
{"COMPOUND": "Nc1nc(N)c(N=O)c(Nc2ccc(Br)cc2)n1", "T/C": "106 % of control"}
{"COMPOUND": "CC1(C)OCC2OC=CC(=O)C2O1 (stereo unspecified)", "T/C": "97 % of control"}
{"COMPOUND": "Cn1c(N)c(N=Nc2ccccc2Cl)c(=O)n(C)c1=O", "T/C": "104 % of control"}
{"COMPOUND": "CN=C(N)N/N=C(\\C)c1ccc2sc3ccc(/C(C)=N/NC(N)=NC)cc3c2c1", "T/C": "120 % of control"}
{"COMPOUND": "O=C1[C@H]2CCC[C@H]2[C@H]2CCC[C@@H]12", "T/C": "100 % of control"}
{"COMPOUND": "O=C1C(Cl)=C(Cl)C(=O)C2=C1C1c3ccccc3C2c2ccccc21", "T/C": "94 % of control"}
{"COMPOUND": "N#CCS(=O)(=O)c1cccc[n+]1[O-]", "T/C": "117 % of control"}
{"COMPOUND": "O=C/C=C/c1cccc([N+](=O)[O-])c1", "T/C": "118 % of control"}
{"COMPOUND": "S=C(NCNC(=S)c1ccncc1)c1ccncc1", "T/C": "91 % of control"}
{"COMPOUND": "COc1ccc(C(C)c2cc3c(cc2OC)OCO3)cc1 (stereo unspecified)", "T/C": "100 % of control"}

====

Known T/C of a selection of compounds
System: B6C3F1 mice, B16 melanoma ip, median survival T/C
Assay: NCI In Vivo Anticancer Drug Screen. Data for tumor model B16 Melanoma (intraperitoneal) in B6C3F1 mice
Settings: endpoint: median survival time; dose: 200.0 mg/kg/injection; schedule: Q01DX009 (ip); vehicle: Klucel (hydroxypropylcellulose) (HPC); higher = longer survival
Inconclusive results and toxic doses are left out. Where a SMILES comes first, the peptide text is derived from it. [ ]: non-standard residue; d: D form. The star is where a group is joined. Nle = CCCC[CH](N)C(=O)O; Cbz = O=C(OCc1ccccc1)*; Bn = c1ccc(C*)cc1
OBSERVATION TYPE: T/C

{"COMPOUND": "O=C1CN(CO)C(=O)N1CO", "RESULT": "103 % of control"}
{"COMPOUND": "CCCCC(NC(=O)OCc1ccccc1)C(=O)NC(C(=O)O)C(C)C (configuration not stated) (Cbz-[Nle]-Val-OH; configuration not given here)", "RESULT": "105 % of control"}
{"COMPOUND": "COc1cc(OC)c(OC)cc1/C=C\\c1ccnc2ccccc12", "RESULT": "97 % of control"}
{"COMPOUND": "CCCC(NC(=O)C(C)N)C(=O)O (configuration not stated)", "RESULT": "92 % of control"}
{"COMPOUND": "C[C@]12CCC(=O)C=C1CC[C@@H]1[C@@H]2C(=O)C[C@@]2(C)[C@H]1CC[C@]2(O)C(=O)CO", "RESULT": "108 % of control"}
{"COMPOUND": "O=C(NC(Cc1ccc(I)cc1)C(=O)O)c1cccc(Br)c1 (configuration not stated)", "RESULT": "103 % of control"}
{"COMPOUND": "CC(C)C(NC(=O)C(CSCc1ccccc1)NC(=O)OCc1ccccc1)C(=O)O (configuration not stated) (Cbz-Cys(Bn)-Val-OH; configuration not given here)", "RESULT": "98 % of control"}
